Measured IC50 accompanies every entry in the list below.
Target: human SCD1 (Homo sapiens)
Construct: expressed in transfected cells; host or cells: yeast strain with OLE1 deleted, plasmid-borne human SCD1 (selected in SD-Ura)
Sequence (O00767 1-359): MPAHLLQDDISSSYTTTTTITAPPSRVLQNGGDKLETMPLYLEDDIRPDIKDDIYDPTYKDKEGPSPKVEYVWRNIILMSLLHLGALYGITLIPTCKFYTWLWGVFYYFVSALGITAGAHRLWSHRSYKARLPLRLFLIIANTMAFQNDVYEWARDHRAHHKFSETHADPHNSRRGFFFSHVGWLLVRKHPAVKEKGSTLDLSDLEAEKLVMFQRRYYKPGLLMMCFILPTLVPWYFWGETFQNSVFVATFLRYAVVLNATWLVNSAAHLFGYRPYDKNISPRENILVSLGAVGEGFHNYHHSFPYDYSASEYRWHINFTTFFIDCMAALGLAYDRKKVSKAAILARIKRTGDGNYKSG
Assay: Growth inhibition of yeast strain expressing human SCD1 as sole desaturase (OLE1 deleted), OD600 readout
Type: cell-based
Conditions: yeast strain expressing human SCD1 as sole desaturase; growth (OD600) after 40 h at 30° C.; read-out: SCD1 IC50

{"Smiles Record": "COCc1ncc(C(=O)Nc2ccc(Cc3cccc(Cl)c3)cn2)c(OC)n1", "Target Entity": "human SCD1 (Homo sapiens)", "Reading Qualifier": "=", "IC50, µM": 3.94}
{"Smiles Record": "CC(=O)c1ccc(C(=O)Nc2ccc(Cc3cccc(Cl)c3)cn2)cn1", "Target Entity": "human SCD1 (Homo sapiens)", "Reading Qualifier": "=", "IC50, µM": 6.78}
{"Smiles Record": "Cn1nc(NC(=O)c2ccc(Cc3cc(F)cc(F)c3)cn2)ccc1=O", "Target Entity": "human SCD1 (Homo sapiens)", "Reading Qualifier": "=", "IC50, µM": 0.14}
{"Smiles Record": "Cn1c(C(=O)Nc2ccc(Cc3ccc(F)c(F)c3)cn2)coc1=O", "Target Entity": "human SCD1 (Homo sapiens)", "Reading Qualifier": "=", "IC50, µM": 2.6}
{"Smiles Record": "CCn1ccc(C(=O)Nc2ccc(Cc3cccc(F)c3)cn2)n1", "Target Entity": "human SCD1 (Homo sapiens)", "Reading Qualifier": "=", "IC50, µM": 1.08}
{"Smiles Record": "Cn1nc(NC(=O)c2ccc(Cc3cccc(F)c3)cn2)ccc1=O", "Target Entity": "human SCD1 (Homo sapiens)", "Reading Qualifier": "=", "IC50, µM": 0.65}
{"Smiles Record": "CN1N=C(C(=O)N(C)c2ncc(Cc3cccc(F)c3)s2)CCC1=O", "Target Entity": "human SCD1 (Homo sapiens)", "Reading Qualifier": ">", "IC50, µM": 45}
{"Smiles Record": "Cn1nc(C(=O)Nc2ccc(COc3ccc(Cl)cc3)cn2)ccc1=O", "Target Entity": "human SCD1 (Homo sapiens)", "Reading Qualifier": ">", "IC50, µM": 45}
{"Smiles Record": "O=C(Nc1ccc(Cc2cccc(F)c2)nn1)c1ccc(=O)n(C2CC2)n1", "Target Entity": "human SCD1 (Homo sapiens)", "Reading Qualifier": "=", "IC50, µM": 6.67}
